Catalogue of glycan array binding signal (z-score) values
# Experimental Target: Fuc(a1-2)Gal(b1-3)[Fuc(a1-4)]GlcNAc(b1-3)[Fuc(a1-3)[Gal(b1-4)]GlcNAc(b1-6)]Gal(b1-4)Glc
# Assay: glycan array binding signal (z-score within array); higher = stronger binding
# Condition Set: glycan notation: IUPAC condensed, linker removed
The sample as a whole holds a higher share of the strongest signals than the screen did.
Measurement Type: glycan array binding signal (z-score)

Binder	Measurement Type	Observed Result
Banana lectin (Musa acuminata) (protein) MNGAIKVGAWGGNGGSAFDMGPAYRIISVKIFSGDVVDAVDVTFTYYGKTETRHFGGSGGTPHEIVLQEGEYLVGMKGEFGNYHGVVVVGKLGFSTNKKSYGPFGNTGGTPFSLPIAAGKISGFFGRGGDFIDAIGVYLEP	glycan array binding signal (z-score)	-0.195
Microvirin-2 (Microcystis aeruginosa) (protein) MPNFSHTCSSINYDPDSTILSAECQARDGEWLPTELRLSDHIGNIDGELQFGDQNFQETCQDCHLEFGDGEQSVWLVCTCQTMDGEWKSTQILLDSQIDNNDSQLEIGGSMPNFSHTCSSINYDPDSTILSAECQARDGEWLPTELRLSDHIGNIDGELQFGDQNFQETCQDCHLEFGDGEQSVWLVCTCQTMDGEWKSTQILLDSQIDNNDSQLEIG	glycan array binding signal (z-score)	-0.137
CFEM-SCL (Saccharomyces cerevisiae), O13547 (protein) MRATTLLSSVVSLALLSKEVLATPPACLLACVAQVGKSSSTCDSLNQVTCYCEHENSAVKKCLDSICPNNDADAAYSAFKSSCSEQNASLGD	glycan array binding signal (z-score)	-0.173
